Tested on: THRa:RXRa (NR concentration 90 nM, RXRa partner concentration 90 nM)
Protocol Notes: PBM binding z-score (relative to random genomic background probes); higher = stronger binding; sequences stand for … in GC…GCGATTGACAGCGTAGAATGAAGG
Measured PBM binding z-score values are reported for all entries that follow.

Example sequences with recorded PBM binding z-score:
CCTACTGGGCCACGAAATGTCATTGATTCAGTGA	0.211
GATACAGGGTAAAGGCCAGAGTACGCGTATTGAT	0.316
AGTCAAAGTGCACTAGGTAACGTAAGATTCAGCT	0.43
CCGACTGGGGCATAAGGTTGCCATAAGCCAGCCC	0.276

Then this sequence:
For the record AGAATGAGGTTACCAAAGATCAGGGAAACGCTTG , what value of PBM binding z-score is listed for THRa:RXRa (NR concentration 90 nM, RXRa partner concentration 90 nM)?
3.04

###

Test system: PPARg:RXRa 30nM:10nM, anti-RXR (NR concentration 30 nM, RXRa partner concentration 10 nM)
Protocol Notes: PBM binding z-score (relative to random genomic background probes); higher = stronger binding; sequences stand for … in GC…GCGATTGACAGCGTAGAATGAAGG
Recorded PBM binding z-score, one value per entry.
Enter a number only.

AGTCAAAGTTCACAAGGTAACGTAAGATTCAGCT	3.67

I would be grateful if you could share the reported PBM binding z-score for TTACCAAGGTGCAAGGTCGTTGATGCACGCCTTG .
1.91

Please give the result for CCTCGGAGGACAGAAGGTCAGAGCAGTCCGCTTT too.
-0.57

###

Listed here are sequences together with their documented PBM binding z-score.
System: PXR homodimer (NR concentration 270 nM)
Protocol Notes: PBM binding z-score (relative to random genomic background probes); higher = stronger binding; sequences stand for … in GC…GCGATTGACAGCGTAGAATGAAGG
// keep it numeric: no unit symbol after the value

Known results for sequences:
TCTAGCAGGCGAGAGGGTCACTCAAGAGGTACGG	-0.472
GCTTACGGGTCAACGGTTATAGCATGAATAGAAT	0.0463
TCTAGTTGGTCAAAGGTCACACAGTCGAAATGCG	1.76
TGTAGTTGGTCAAAGGTCACACACTCGAAATGCG	1.72

Which measured PBM binding z-score belongs to CGTCCAAGGTCAGAGAGGTCAGTGAATGCCGAGT , tested on PXR homodimer (NR concentration 270 nM)?
12.3

And then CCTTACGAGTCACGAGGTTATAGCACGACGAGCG , what is it?
0.811

Follow-up item: CCTATTAGTTGACCATAAGGGCAACTGAAGCTCG
0.613

What do you have for CCCAGCAGGCCAATCTGGGTCACTCAAGGCTTGA ?
-0.346

What would you report for ACTAGCAGCCCAAGGGTCACTCAAGATTAGTCCG ?
0.208

And the next one, ACAGACAGGTGAGTGAAGGTAGCTCAGCTGGACG ?
-0.525

CCGACTGGGCCAAGGTTACCATAACGCACAGCCA , same question.
-0.166

###

Tested on: PPARg homodimer (NR concentration 180 nM)
Protocol Notes: PBM binding z-score (relative to random genomic background probes); higher = stronger binding; sequences stand for … in GC…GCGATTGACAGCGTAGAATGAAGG
Mark NOT MET for PBM binding z-score values under 0.4, and MET for everything at or above.

Answered examples (5):
CCGACTGGGGCAGAAAGGTTACTATACCATCCGG	NOT MET
CAAACTAGGTCATGAGGTCAAAGTCCGCTTCCCG	MET
ATCTCTAGGTAACAAAGTTCAGTGAATGCCGAAC	MET
ATCTCTAGGTAGCAAGTTCAGTGAAAGAGAGGAC	MET
TCTGCTAGGTCAGTTGGTCAGCTGACGAGCTGCC	NOT MET

Can GTACCAAGGTGAATCGGTCGTTGATGAGTAGGCG be said to have PBM binding z-score at or above 0.4?
NOT MET

Next sequence up: ATACCAAGGTGATCGTGATGTCGTTGATACTAAC
NOT MET

Could you do the same for AATAAAGGGTCACTAGGCCAGAGTAGGTACGAAT , please?
MET

And then CGTCCAAGGTCAAGGTCAGTGGAAGAGACTCGAA , what is it?
MET

Can you check TGTCAAAGTTCAAGGGTAACGTAAGTATCCACAC next?
MET

Now give it for AATACAGGATCATCGTAGGCCAGAGTACGCACAG too.
NOT MET

Input ATCTGTAGGTAAAGTTCAGTGAAAGATCGATAGA
MET

Now consider ACTAGCAGGCCAAGTTTGGGTCACTCCAACAAAG and answer again.
NOT MET

Quick one: TCTTGTAGATCAAAAGTTAAGAAAGCCGAAGCCT
NOT MET

Record: GCTAGCAGGACATTTGGGTCACTCAATGACGGGC
NOT MET

Quick one: GCAGACAGGTGAAACGCAGGTTACTCAGGGTGGC
NOT MET

Query CCTACCGGGCCACGAAAGGTCATTGATTCAGTGA next
MET

Also need TGTCGGAGGACACGAAAGGTCAGAGCTCGACATC , thanks.
MET

Okay, and TCTGCTAGGTCAACGATAGTCAGCTAATCTGCTA ?
MET

Then what about the sequence TCTGCTAGGTCAACGATGGTCAGCAAATCTGCTA ?
NOT MET

Repeat for the following sequence: GCAGACAGGTGAAACGCAGGTAACTCGGGGTGGC
NOT MET

Cool, now AGAACGAGGGCACGCGGAGTTGATAGCAGAGTAG
NOT MET

Note, next up: CCTACTCGGCCAAGGTCATTGATCAGTCAAAGCA
MET

Follow-up item: ACTAGCAGGCCAAGGGTCACTCCAGATTAGTCCG
MET

Repeat with TCTATTAGTTGAGGGGCAACCGACGAGTCCGTTT
MET

Next sequence: ACTTACGGGTCATCGAGGTTATAGCACGCGTATA
MET

###

Listing of recorded PBM binding z-score by entry.
System: PPARg:RXRa IVT, anti-PPARg (NR concentration 270 nM, RXRa partner concentration 90 nM)
Protocol Notes: PBM binding z-score (relative to random genomic background probes); higher = stronger binding; sequences stand for … in GC…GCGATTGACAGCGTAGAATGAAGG
In your answer, state the number alone without any accompanying words.

Worked cases, PBM binding z-score given:
TCATATAGGTAAATGCTAGGTGGAAGTCCGATCT	2.01
TGTCATAGTTCAAAGGTAACGTAAGTATCCACAC	3.05
AGTCAAAGTACATCTAGGTAACGTAAGATATGCT	2.23
TTACCAAGGTGATAGGTCGTTGATGCACGCCTTG	2.82
AGACAAAGTTCACTAGGTAACGTAAGATTCAGCT	4.14
CCTCGGAGGACAACAGGAGGTCAGACCTGCCAGA	0.546
AGTCAAAGTTAACTAGGTAACGTAAGATTCAGCT	4.72
CCTATGAGTTGACCATAAGGGCAACCGAAGCTCG	0.26

Which PBM binding z-score is reported for this sequence? TGTCAAAGTTCAAAGGTAAGGTAAGTATCCACAC
4.2

// same read-out, input: TTACTAAGGTGAAAGGTCGTTGATGCACGCCTTG
5.63

Subsequent entry: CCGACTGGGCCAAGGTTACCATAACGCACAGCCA
1.71

Now try CCGACTGGGGCAAAGCTTACCATACTCAGTACGA .
2.85

###

Tested on: THRa:RXRa (NR concentration 90 nM, RXRa partner concentration 90 nM)
Protocol Notes: PBM binding z-score (relative to random genomic background probes); higher = stronger binding; sequences stand for … in GC…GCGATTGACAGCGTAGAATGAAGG
Reported PBM binding z-score maps to class as: low-valued = under 2, mid-valued = from 2 up to 3, high-valued = 3 and over

Take a look at these entries with their results.
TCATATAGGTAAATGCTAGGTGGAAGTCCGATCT	low-valued
TCTTGAAGATCAAAGGTTAAGAAAGCCGAAGCCT	low-valued
CCTACTTGGTCAAGGTCACACACGCTATAGGTAC	high-valued

Kindly state the category for this sequence: CGTCCAAGGTCATAGGAGGTAAGTGAAGACAGAT
high-valued

Likewise for GCGACTGGGGCACCAGCAGGTTACCATAACTTAA ?
low-valued

Do the same for CGAACTAGGTCATCCAGGATAGTGAATACATTGA please
high-valued

Continue with TCGAGTAGGTTACCAATGGGTCATTCAGCTTTCT
low-valued

Can you check AGAATGAGGTTATCAAAGATCAGGGAAACGCTTG next?
mid-valued
